# reported % of fluorescence positive cells; entries follow
# study target: T1, recombinant hIL-18Rα extracellular domain (human, UniProt Q13478 22-329, biotin label (selection) or fluorescent probe (single-clone FACS), sites not given)
# T1 construct: extracellular domain; also called hIL-18Rα ECD; hIL-18Rα-ECD
# T1 sequence (looked up): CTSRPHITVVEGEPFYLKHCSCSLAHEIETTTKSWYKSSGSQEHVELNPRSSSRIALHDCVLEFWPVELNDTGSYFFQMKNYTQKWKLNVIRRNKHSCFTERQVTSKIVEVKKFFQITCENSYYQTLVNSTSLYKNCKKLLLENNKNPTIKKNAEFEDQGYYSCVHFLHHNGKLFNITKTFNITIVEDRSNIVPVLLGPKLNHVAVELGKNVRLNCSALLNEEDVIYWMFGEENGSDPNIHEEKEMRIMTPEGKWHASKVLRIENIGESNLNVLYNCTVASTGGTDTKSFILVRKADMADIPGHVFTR
# method: single-clone FACS, yeast display, 10 nM labelled hIL-18Rα ECD

binder	% of fluorescence positive cells, %
IL-18 variant polypeptide M16 (ligand) YFPKLRSKLSVIRNLNDQVLFIDQGNRPLFEDMTDSDCRDNAPRTIFIISMYKSSRNRGMAVTISVKCEKISTLSCENKIISFKEMNPPDGIKDTKSDIIFFQSSVPGHDNKMQFESSSYEGYFLACEKERDLFKLILKKEDELGDRSIMFTVQNED	88.5
IL-18 variant polypeptide M2 (ligand) YFSKLKSKLSVIRNLNDQVLFIDQGNRPLFEDMTDSDCRDNAPRTIFIISMYKWSPDRGMAVTISVKCEKISTLSCENKIISFKEMNPPDGIKDTKSDIIFFQTSVPGHDNKMQFESSSYEGYFLACEKERDLFKLILKKEDELGDRSIMFTVQNED	91.6
IL-18 variant polypeptide M36 (ligand) YFPKLSSKLSVIRNLNDQVLFIDQGNRPLFEDMTDSDCRDNAPRTIFIISMYKASDQRGMAVTISVKCEKISTLSCENKIISFKEMNPPDGIKDTKSDIIFFQRSVPGHDNKMQFESSSYEGYFLACEKERDLFKLILKKEDELGDRSIMFTVQNED	14.8
